# Tested on: RAW-Dual
# TEST: NF-kB SEAP reporter activity, fold change vs agonist alone; higher = enhanced NF-kB activity
# APPLIED_CONDITIONS: library stock concentration (final ~1000-fold dilution): 10 mM; cytotoxicity flag (confluency mask): not cytotoxic; agonist: Imiquimod (TLR7) […]
Over roughly 2,900 compounds, “NF-kB SEAP reporter activity, fold change vs agonist alone” has its median near 0.99; the highest 2% begin near 2.6. The full list was thinned out, with the highest values kept by preference.
Reported NF-kB SEAP reporter activity values follow for various molecules
Output: the number by itself.

INSERT INTO measurements (molecule, result_type, experimental_result) VALUES
  ('Cc1ccc(C(=O)N(CCCN)C(c2oc3cc(Cl)ccc3c(=O)c2Cc2ccccc2)C(C)C)cc1.Cl (centres undefined)', 'NF-kB SEAP reporter activity', 0.905),
  ('COCc1ccc(-c2ccc3ncc(C(N)=O)c(NC(C)C4CCOCC4)c3c2)cn1 (centres undefined)', 'NF-kB SEAP reporter activity', 0.993),
  ('CC(=O)OC12COC1CC(O)C1(C)C(=O)C(O)C3=C(C)C(OC(=O)C(O)C(NC(=O)OC(C)(C)C)c4ccccc4)CC(O)(C(OC(=O)c4ccccc4)C21)C3(C)C (centres undefined)', 'NF-kB SEAP reporter activity', 1.14),
  ('CC(=O)Oc1cc2c(cc1Cl)C(c1ccccc1C(=O)O)c1cc(Cl)c(OC(C)=O)cc1O2', 'NF-kB SEAP reporter activity', 1.04);

Q: Give NF-kB SEAP reporter activity; test system RAW-Dual; molecule "CCn1c(-c2nonc2N)nc2cnc(Oc3cccc(NC(=O)c4ccc(OCCN5CCOCC5)cc4)c3)cc21.Cl"
Result: 1.48

Q: Give NF-kB SEAP reporter activity; test system RAW-Dual; molecule Cc1nc(NC(=O)N2CCCC2C(N)=O)sc1-c1ccnc(C(C)(C)C(F)(F)F)c1 (centres undefined)
Result: 1.35

Q: Give NF-kB SEAP reporter activity; test system RAW-Dual; molecule "CCCCN(Cc1ccc(C(=O)NO)cc1)C(=O)Nc1ccccc1"
Result: 1.52

---

# System: RAW-Dual
# TEST: NF-kB SEAP reporter activity, fold change vs agonist alone; higher = enhanced NF-kB activity
# APPLIED_CONDITIONS: library stock concentration (final ~1000-fold dilution): 10 mM; cytotoxicity flag (confluency mask): not cytotoxic; agonist: MPLA (TLR4) […]
The full ranking holds about 2,900 compounds; the median of “NF-kB SEAP reporter activity, fold change vs agonist alone” is about 0.99, and the highest 2% start at about 2.6. This is one part of a sample in which the highest values are shown more often than they occur.
RESULT_TYPE: NF-kB SEAP reporter activity
Output: the number by itself.

INSERT INTO assay_data (molecule, assay_target, result_type, experimental_result) VALUES
  ('Br.NC(=O)C(c1ccccc1)(c1ccccc1)C1CCN(CCc2ccc3c(c2)CCO3)C1 (stereo unspecified)', 'RAW-Dual', 'NF-kB SEAP reporter activity', 0.984);

Q: Give the reported value of NF-kB SEAP reporter activity for this record: CC(C)CC(NP(=O)(O)OC1OC(C)C(O)C(O)C1O)C(=O)NC(Cc1c[nH]c2ccccc12)C(=O)O (stereo unspecified)
Result: 1.03

Q: Give the reported value of NF-kB SEAP reporter activity for this record: CC1(c2nc3c(C(N)=O)cccc3[nH]2)CCCN1 (stereo unspecified)
Result: 0.99

Q: Give the reported value of NF-kB SEAP reporter activity for this record: CC1OC(OC2C(CO)OC(OCC3OC(OC(=O)[C@]45CC[C@@H](C)[C@H](C)[C@H]4C4=CCC6[C@@]7(C)C[C@@H](O)[C@@H](O)[C@@](C)(CO)C7CC[C@@]6(C)[C@]4(C)CC5)C(O)C(O)C3O)C(O)C2O)C(O)C(O)C1O (stereo partly specified)
Result: 1.12

Q: Give the reported value of NF-kB SEAP reporter activity for this record: O=C(NCC(O)CN1CCc2ccccc2C1)c1ccnc(NC2CCC2)c1 (stereo unspecified)
Result: 0.997

Q: Give the reported value of NF-kB SEAP reporter activity for this record: Cc1nnc(C(C)C)n1C1CC2CCC(C1)N2CCC(NC(=O)C1CCC(F)(F)CC1)c1ccccc1 (stereo unspecified)
Result: 1

Numbers sourced from the supplement of paper PMC10037445.
